Target: IDO1 (Homo sapiens)
Sequence (P14902 whole entry): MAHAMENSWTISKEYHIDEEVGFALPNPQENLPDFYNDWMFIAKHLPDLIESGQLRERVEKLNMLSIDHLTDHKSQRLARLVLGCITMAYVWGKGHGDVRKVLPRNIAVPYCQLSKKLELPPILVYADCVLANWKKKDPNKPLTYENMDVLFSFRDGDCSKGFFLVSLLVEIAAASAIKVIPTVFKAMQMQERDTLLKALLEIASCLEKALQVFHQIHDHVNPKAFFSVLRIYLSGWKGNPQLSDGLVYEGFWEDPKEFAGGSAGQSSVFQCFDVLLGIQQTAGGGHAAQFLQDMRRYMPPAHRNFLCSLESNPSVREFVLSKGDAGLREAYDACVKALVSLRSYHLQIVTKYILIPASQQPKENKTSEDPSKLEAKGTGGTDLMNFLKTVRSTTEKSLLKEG
Assay: IDO1 Cellular Assay in Hela Cells Stimulated with IFNγ
Type: cell-based
Design: endogenous in cells; host or cells: HeLa cells stimulated with IFNγ (100 ng/mL)
Conditions: Hela cells stimulated with IFNγ 100 ng/mL, 300 uM L-tryptophan, about 48 hours, fluorescence readout
Description: IDO1 Cellular Assay in Hela Cells Stimulated with IFNγ Hela cells were cultured in complete Hela culture medium (90% EMEM, 10% heat-inactivated fetal bovine serum) and expanded to about 1×10^9 cells. […] Frozen Hela cells were thawed and transferred into Hela assay medium (99% complete Hela culture medium, 1% Pen/Strep) with 20 mL medium/vial of cells. […] The cells were then counted and adjusted to a density of 2×10^5 cells/ml in Hela assay medium. […]
endpointName: IC50

{"molecule": "O=C(Nc1ccc(C2(C(=O)Nc3ccc(F)c(F)c3)CCC2)cc1)c1cccc(Cl)c1", "IC50": "3 nM"}
{"molecule": "O=C(Nc1ccc(C2(NC(=O)c3cncnc3)CCC2)cc1)c1cccc(Cl)c1", "IC50": "92 nM"}
{"molecule": "O=C(NC1CCC(F)(F)CC1)c1ccc(C2(C(=O)Nc3ccc(F)cn3)CCC2)cc1", "IC50": "1810 nM"}
{"molecule": "CCO[C@H]1C[C@@H]1NC(=O)C1(c2ccc(NC(=O)c3cccc(Cl)c3)cc2)CC(F)(F)C1", "IC50": "207 nM"}

[ask] Data request, read-out IC50, for CCCNC(=O)C1(c2ccc(NC(=O)C3Cc4ccccc43)cc2)CCC1 (stereo not drawn)
[reply] 1050 nM

[ask] Which IC50 is reported for this molecule? CCOC1CC1NC(=O)C1(c2ccc(NC(=O)c3cccc(Cl)c3)cc2)CCC1 (stereo not drawn)
[reply] 24 nM

[ask] Quick check: IC50 of CCO[C@@H]1C[C@H]1NC(=O)C1(c2ccc(NC(=O)c3cccc(Cl)c3)cc2)CC(F)(F)C1 ?
[reply] 1440 nM

[ask] Which IC50 is reported for this molecule? O=C(NC1CCCCC1)c1ccc(C2(C(=O)Nc3ccc(F)cn3)CCC2)cc1
[reply] 489 nM

[ask] Could you share which IC50 value was measured for CC(C)(C)/N=C/c1cc(C2(C(=O)NCCC(F)(F)F)CCC2)ccc1NC(=O)c1cccc(Cl)c1 ?
[reply] 176 nM

The reported measurements were obtained from patent US11319283B2.
